# key: entry, value: IC50
- tested_system: 15-PGDH/HPGD (Homo sapiens, UniProt P15428)
- test_method_notes: hPGDH inhibitor screening biochemical assay
- experimental_context: 10 nM enzyme, 15 μM Prostaglandin E2, 0.25 mM NAD, fluorescence ex/em 340/485 nm

Examples from the recorded data:
C[C@H]1C[C@@H](OC[C@@H](O)c2cnc3c(cnn3-c3ccc(C(=O)O)cc3)c2)C1 [Compound 127B] ... < 100 nM
CCOC1([C@H](O)c2cnc3c(cnn3-c3ccc(C(=O)O)cc3)c2)CCC1 [Compound 85A] ... 100 to 1000 nM
CC(C)OCC[C@@H](O)c1cnc2c(cnn2-c2cccc(-c3nnc[nH]3)c2)c1 [Compound 44A] ... < 100 nM

INPUT: Tell me the measured IC50 of O=C(O)CCc1ccc(-n2ncc3cc([C@@H](O)COC4CCCC4)cnc32)cc1F [Compound 88A] , please.
OUTPUT: 100 to 1000 nM

INPUT: If you can, please state the reported IC50 value of CC(O)(c1cnc2c(ccn2-c2cccc(-c3nnc[nH]3)c2)c1)C1CCCC1 (single isomer, unassigned) [Compound 11A] .
OUTPUT: 100 to 1000 nM

INPUT: Quick check: IC50 of CCCC(F)(F)[C@@H](O)c1cnc2c(ccn2-c2cccc(-c3nnc[nH]3)c2)n1 [Compound 35A] ?
OUTPUT: < 100 nM

INPUT: Request the reported IC50 associated with O[C@H](c1cnc2c(cnn2-c2cccc(-c3nnc[nH]3)c2)c1)[C@H]1CCOC1 [Compound 68B]
OUTPUT: < 100 nM

INPUT: Tell me the measured IC50 of CC(C)OCC(O)c1cnc2c(cnn2-c2cccc(-c3nnc[nH]3)c2)c1 (single isomer, unassigned) [Compound 18A] , please.
OUTPUT: < 100 nM

----------
- tested_system: 15-PGDH/HPGD (Homo sapiens, UniProt P15428)
- Sequence (P15428 1-266): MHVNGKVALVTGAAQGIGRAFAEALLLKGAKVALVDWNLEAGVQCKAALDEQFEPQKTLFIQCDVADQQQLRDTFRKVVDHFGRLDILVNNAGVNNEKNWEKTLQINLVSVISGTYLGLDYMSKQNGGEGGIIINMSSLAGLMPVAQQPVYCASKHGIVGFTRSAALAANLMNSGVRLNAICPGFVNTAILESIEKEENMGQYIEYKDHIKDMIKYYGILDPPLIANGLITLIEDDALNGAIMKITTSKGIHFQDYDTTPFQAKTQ
- test_method_notes: hPGDH inhibitor screening biochemical assay
- experimental_context: 10 nM enzyme, 15 μM Prostaglandin E2, 0.25 mM NAD, fluorescence ex/em 340/485 nm
pIC50: −log10 of the molar value.
measured_metric: pIC50

Below, each entry is followed by its recorded pIC50 result.
CCOC1([C@@H](O)c2cnc3c(cnn3-c3cccc(-c4nnc[nH]4)c3)c2)CCC1 [Compound 83B] ... 6.00 to 7.00
CCOC1([C@@H](O)c2cnc3c(cnn3-c3cccc(-c4nnc[nH]4)c3)c2)CC1 [Compound 63B] ... > 7.00
C[S+]([O-])c1cccc(-n2ncc3cc([C@H](O)COC4CCC4)cnc32)c1 (stereo partly drawn) [Compound 125B] ... ≤ 6.00

INPUT: For CC(C)OCC(O)c1cnc2c(cnn2-c2ccc(CCC(=O)O)c(F)c2)c1 (stereo in doubt) [Compound 70B] , what is its reported pIC50?
OUTPUT: > 7.00

INPUT: Returns the measured pIC50 for the input molecule. Input: CC(C)OC[C@H](O)c1cnc2c(ccn2-c2ccc(C(=O)O)cc2)n1 [Compound 49A]
OUTPUT: > 7.00

INPUT: Give its pIC50 value. Item: NC(=O)c1ccc(-n2ncc3cc([C@@H](O)COC4CCC4)cnc32)cc1 [Compound 81B]
OUTPUT: > 7.00

INPUT: Consider the molecule O[C@@H](c1cnc2c(cnn2-c2cccc(-c3nnc[nH]3)c2)c1)C1(OCC(F)F)CC1 [Compound 73B] and give its measured pIC50.
OUTPUT: ≤ 6.00

INPUT: State the recorded pIC50 for this entry: O[C@@H](c1cnc2c(cnn2-c2cccc(-c3nnc[nH]3)c2)c1)[C@@H]1CCOC1 [Compound 68A]
OUTPUT: > 7.00

----------
- tested_system: 15-PGDH/HPGD (Homo sapiens, UniProt P15428)
- Sequence (P15428 1-266): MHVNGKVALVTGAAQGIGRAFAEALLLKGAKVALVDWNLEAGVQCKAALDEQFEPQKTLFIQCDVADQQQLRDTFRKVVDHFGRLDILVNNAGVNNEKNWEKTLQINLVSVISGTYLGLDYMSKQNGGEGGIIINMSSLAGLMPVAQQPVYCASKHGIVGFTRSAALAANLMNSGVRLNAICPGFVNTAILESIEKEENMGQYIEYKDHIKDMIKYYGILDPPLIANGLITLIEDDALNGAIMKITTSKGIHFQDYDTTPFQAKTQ
- test_method_notes: hPGDH inhibitor screening biochemical assay
- experimental_context: 10 nM enzyme, 15 μM Prostaglandin E2, 0.25 mM NAD, fluorescence ex/em 340/485 nm
pIC50: −log10 of the molar value.
measured_metric: pIC50

CNC(=O)c1cccc(-n2ncc3cc([C@H](O)COC4CCC4)cnc32)c1 [Compound 110B] ... ≤ 6.00
CC(C)OC[C@@H](O)c1cnc2c(ccn2-c2cccc(-c3nnc[nH]3)c2)n1 [Compound 20A] ... > 7.00
CCCC[C@@H](O)c1cnc2c(ccn2-c2cccc(-c3nnc[nH]3)c2)n1 [Compound 2B] ... > 7.00
Cc1nn(-c2ccc(C(=O)O)cc2)c2ncc([C@@H](O)COC3CCC3)cc12 [Compound 109A] ... > 7.00
CC1(C)CC(OC[C@@H](O)c2cnc3c(cnn3-c3ccc(C(=O)O)nc3)c2)C1 [Compound 116B] ... > 7.00

INPUT: Entry CC1(OC[C@@H](O)c2cnc3c(cnn3-c3ccc(C(=O)O)cc3)c2)CCC1 [Compound 90B] has what pIC50?
OUTPUT: > 7.00

INPUT: Which measured pIC50 value corresponds to O=C(O)c1ccc(-n2ncc3cc([C@H](O)COCC4(C(F)(F)F)CC4)cnc32)cc1 [Compound 113B] ?
OUTPUT: > 7.00

INPUT: For the molecule CC1(C)CC(OC[C@H](O)c2cnc3c(cnn3-c3ccc(C(=O)O)nc3)c2)C1 [Compound 116A] , what pIC50 is on record?
OUTPUT: 6.00 to 7.00

----------
Reported values of IC50 for individual entries
- tested_system: 15-PGDH/HPGD (Homo sapiens, UniProt P15428)
- test_method_notes: hPGDH inhibitor screening biochemical assay
- experimental_context: 10 nM enzyme, 15 μM Prostaglandin E2, 0.25 mM NAD, fluorescence ex/em 340/485 nm

Use these answered entries as a reference point.
CCOC1([C@H](O)c2cnc3c(cnn3-c3cccc(-c4nnc[nH]4)c3)c2)CC1 [Compound 63A] ... ≥ 1000 nM
O=C(O)c1ccc(-n2ncc3cc([C@@H](O)COCC4CC4)cnc32)cc1 [Compound 107A] ... < 100 nM
CC(C)OCC[C@H](O)c1cnc2c(cnn2-c2cccc(-c3nnc[nH]3)c2)c1 [Compound 44B] ... < 100 nM
CC(C)OC[C@@H](O)c1cnc2c(cnn2-c2ccc(OCC(=O)O)cc2)c1 [Compound 78B] ... < 100 nM
O=C(O)CCc1ccc(-n2ncc3cc([C@@H](O)COC4CC4)cnc32)cc1F [Compound 86A] ... < 100 nM
CCCC(F)(F)[C@H](O)c1cnc2c(ccn2-c2cccc(-c3nnc[nH]3)c2)n1 [Compound 35B] ... 100 to 1000 nM

For the next question, use this molecule.
INPUT: # lookup: IC50 of CC(C)NC[C@@H](O)c1cnc2c(ccn2-c2cccc(-c3nnc[nH]3)c2)n1 [Compound 22B]
OUTPUT: 100 to 1000 nM

----------
Each entry below carries its recorded IC50.
- tested_system: 15-PGDH/HPGD (Homo sapiens, UniProt P15428)
- test_method_notes: hPGDH inhibitor screening biochemical assay
- experimental_context: 10 nM enzyme, 15 μM Prostaglandin E2, 0.25 mM NAD, fluorescence ex/em 340/485 nm

INPUT: So what's the measured IC50 for this one? CC(C)OC[C@H](O)c1cnc2c(cnn2-c2ccc(OCC(=O)O)cc2)c1 [Compound 78A]
OUTPUT: 100 to 1000 nM

INPUT: Which measured IC50 value corresponds to O=C(O)c1ccc(-n2ncc3cc([C@H](O)COC4CCC4)cnc32)cc1 [Compound 42B] ?
OUTPUT: < 100 nM

INPUT: Item O=C(O)c1ccc(-n2ccc3nc([C@H](O)COCC4CC4)cnc32)cc1 [Compound 112B] has what recorded IC50?
OUTPUT: < 100 nM

----------
- tested_system: 15-PGDH/HPGD (Homo sapiens)
- Sequence (P15428 1-266): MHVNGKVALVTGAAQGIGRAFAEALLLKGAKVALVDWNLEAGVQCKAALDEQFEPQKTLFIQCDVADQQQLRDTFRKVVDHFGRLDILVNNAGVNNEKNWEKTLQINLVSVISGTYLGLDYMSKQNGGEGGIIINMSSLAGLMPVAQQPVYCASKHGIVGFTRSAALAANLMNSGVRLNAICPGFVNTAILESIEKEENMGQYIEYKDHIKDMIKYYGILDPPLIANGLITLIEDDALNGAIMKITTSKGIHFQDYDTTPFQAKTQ
- test_method_notes: hPGDH inhibitor screening biochemical assay
- experimental_context: 10 nM enzyme, 15 μM Prostaglandin E2, 0.25 mM NAD, fluorescence ex/em 340/485 nm
measured_metric: IC50

// known answers, use as guide
CC(C)OC[C@H](O)c1cnc2c(cnn2-c2ccc(CC(=O)O)cc2)c1 [Compound 71B] ... ≥ 1 µM
CC(C)NC[C@@H](O)c1cnc2c(cnn2-c2cccc(-c3nnc[nH]3)c2)c1 [Compound 27B] ... < 0.1 µM
O[C@H](c1cnc2c(cnn2-c2cccc(-c3nnc[nH]3)c2)c1)C1COC1 [Compound 28B] ... < 0.1 µM
CCCC(F)(F)[C@@H](O)c1cnc2c(ccn2-c2cccc(-c3nnc[nH]3)c2)c1 [Compound 4A] ... < 0.1 µM
CC1(COC[C@H](O)c2cnc3c(cnn3-c3ccc(C(=O)O)cc3)c2)CC1 [Compound 106A] ... < 0.1 µM
O[C@@H](COC1CCC1)c1cnc2c(cnn2-c2cncc(-c3nnc[nH]3)c2)c1 [Compound 117A] ... < 0.1 µM
CNC(=O)c1ccc(-n2ncc3cc([C@@H](O)COC(C)C)cnc32)cc1 [Compound 67B] ... < 0.1 µM
CN(C)C[C@H](O)c1cnc2c(cnn2-c2cccc(-c3nnc[nH]3)c2)c1 [Compound 25A] ... 0.1 to 1 µM

INPUT: So what does the record say about IC50 for O[C@H](COC1CCC1)c1cnc2c(cnn2-c2ccc(N3CCOCC3)cc2)c1 [Compound 76B] ?
OUTPUT: ≥ 1 µM

INPUT: Quick check: IC50 of CC1(OC[C@H](O)c2cnc3c(cnn3-c3ccc(C(=O)O)cc3)c2)CCC1 [Compound 90A] ?
OUTPUT: < 0.1 µM

INPUT: Look at this compound and give its reported IC50. O=C(O)c1ccc(-n2ccc3nc([C@@H](O)COC4CCC4)cnc32)cc1 [Compound 47A]
OUTPUT: < 0.1 µM
